assay.target: Serine/threonine-protein kinase D3 (Homo sapiens);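 also: values are mean inhibition figures against PRKD3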
condition: at 1 µM
Task for the reader: assign each of the following compounds its reported inhibition.
Numeric only. Scale: %

# lookup: inhibition of O=C(Nc1n[nH]c2cc(-c3ccccc3)ccc12)C1CC1
6.47

# lookup: inhibition of COc1cc(Nc2ncc3c(C)nc(-c4cccc(C(F)(F)F)c4)n3n2)cc(OC)c1OC
2.79

# lookup: inhibition of CN1CCN(CCCNc2nc3ccc(Oc4ccc(NC(=O)Nc5cc(C(F)(F)F)ccc5F)cc4)cc3[nH]2)CC1
-1.97

# lookup: inhibition of CS(=O)(=O)CCNCc1ccc(-c2ccc3ncnc(Nc4ccc(OCc5ccccc5)c(Br)c4)c3c2)o1
-0.73

# lookup: inhibition of Clc1ccc(CNc2nccc(-c3cnn4ncccc34)n2)cc1
3.93

# lookup: inhibition of NC(=O)c1cc(-c2ccc(F)cc2)cc(-c2ccncc2)c1N
2.86

# lookup: inhibition of NC(=O)c1ccc(Oc2nccc(-c3c(-c4ccc(F)cc4)ncn3C3CCNCC3)n2)cc1
5.2

# lookup: inhibition of Fc1ccc(-c2ncn(C3CCNCC3)c2-c2ccnc(Oc3ccc(F)c(F)c3)n2)cc1
5.58

# lookup: inhibition of COc1ccc2cc(-c3c(-c4ccncc4)nc(-c4ccc([S+](C)[O-])cc4C)n3C)ccc2c1 (configuration not stated)
-0.05

# lookup: inhibition of NCc1ccc(-n2c(-c3nonc3N)nc3cnccc32)cc1
40

# lookup: inhibition of COc1cccc(-n2cnc3c(N/N=C/c4ccncc4)ncnc32)c1
-4.97

# lookup: inhibition of CCC(=O)Nc1ccc(C)c(-c2ccc(C(=O)NCC3CC3)cc2)c1
2.11

====

assay.target: Tyrosine-protein kinase JAK2 (Homo sapiens);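 also: mean JAK2 inhibition from the GSK PKIS screen, compounds tested at 1 µM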
condition: at 1 µM
property.name: inhibition (%)
Numeric only. Scale: %

# lookup: inhibition of O=C(Nc1n[nH]c2nc(-c3ccco3)ccc12)C1CC1
2.09

# lookup: inhibition of Clc1ccc(CNc2nccc(-c3cnn4ncccc34)n2)cc1
3.6

# lookup: inhibition of COc1ccc(-c2ccc3c(NC(=O)C4CC4)n[nH]c3n2)cc1
-0.27

# lookup: inhibition of NC(=O)c1cc(-c2ccc(F)cc2)cc(-c2ccncc2)c1N
1.06

# lookup: inhibition of CN(C)CCOc1ccc(-c2cc(-c3ccc4c(c3)CCC4=NO)c(-c3ccncc3)o2)cc1
-1.64

# lookup: inhibition of O=C(Nc1n[nH]c2nc(-c3ccc(O)cc3)c(Br)cc12)C1CC1
28.4

# lookup: inhibition of COc1ccc(C2=C(N3CCc4ccccc43)C(=O)NC2=O)cc1
3.26

# lookup: inhibition of COC(=O)Nc1nc2ccc(Sc3ccc(NC(=O)Nc4cc(C(F)(F)F)ccc4F)cc3)cc2[nH]1
2.1

# lookup: inhibition of CCc1nccc2c1nc(-c1nonc1N)n2CC
2.91

# lookup: inhibition of O=C(Nc1n[nH]c2cc(-c3cc(F)ccc3F)ccc12)C1CC1
1.73

# lookup: inhibition of COc1ccc2cc(-c3c(-c4ccncc4)nc(-c4ccc(S(C)(=O)=O)cc4C)n3C)ccc2c1
1.45

# lookup: inhibition of C[C@@H](Oc1cc(-n2cnc3ccc(OC4CCN(C)CC4)cc32)sc1C(N)=O)c1ccccc1Cl
2.46

====

assay.target: Tyrosine-protein kinase receptor UFO (Homo sapiens) (UniProt P30530);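 also: values are mean percent inhibition of AXL from the GSK PKIS screen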
Sequence (P30530 whole entry): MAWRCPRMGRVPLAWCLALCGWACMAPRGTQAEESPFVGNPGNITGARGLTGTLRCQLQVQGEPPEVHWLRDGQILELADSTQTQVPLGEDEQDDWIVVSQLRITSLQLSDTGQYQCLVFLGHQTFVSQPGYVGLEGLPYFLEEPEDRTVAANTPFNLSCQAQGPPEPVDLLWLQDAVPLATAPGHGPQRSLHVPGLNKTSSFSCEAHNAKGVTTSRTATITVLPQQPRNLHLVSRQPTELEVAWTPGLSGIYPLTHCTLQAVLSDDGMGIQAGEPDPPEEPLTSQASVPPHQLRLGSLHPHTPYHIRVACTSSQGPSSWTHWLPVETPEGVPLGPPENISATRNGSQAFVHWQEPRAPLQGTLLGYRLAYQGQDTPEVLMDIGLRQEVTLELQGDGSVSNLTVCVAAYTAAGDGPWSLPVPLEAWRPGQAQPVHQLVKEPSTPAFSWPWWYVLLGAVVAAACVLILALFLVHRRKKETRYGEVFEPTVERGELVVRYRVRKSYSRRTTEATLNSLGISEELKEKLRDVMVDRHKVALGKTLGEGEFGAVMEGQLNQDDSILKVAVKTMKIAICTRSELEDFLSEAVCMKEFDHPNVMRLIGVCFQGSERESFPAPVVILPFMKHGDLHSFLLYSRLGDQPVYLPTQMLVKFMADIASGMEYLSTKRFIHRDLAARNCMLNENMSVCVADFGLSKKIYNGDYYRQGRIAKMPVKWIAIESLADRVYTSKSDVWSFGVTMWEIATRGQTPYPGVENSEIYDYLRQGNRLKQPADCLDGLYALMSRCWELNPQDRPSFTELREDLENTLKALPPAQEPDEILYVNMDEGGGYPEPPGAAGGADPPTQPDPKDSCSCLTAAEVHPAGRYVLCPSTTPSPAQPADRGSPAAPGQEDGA
condition: at 0.1 µM
Task for the reader: assign each of the following molecules its reported inhibition.

# lookup: inhibition of CCc1nccc2c1nc(-c1nonc1N)n2CC
-0.45%

# lookup: inhibition of CS(=O)(=O)CCNCc1ccc(-c2ccc3ncnc(Nc4ccc(OCc5ccccc5)c(Br)c4)c3c2)o1
-6.75%

# lookup: inhibition of O=C(Nc1n[nH]c2nc(-c3ccc(O)cc3)c(Br)cc12)C1CC1
-7.6%

# lookup: inhibition of CN(C)c1ccc2c(c1)/C(=C/Nc1ccc(S(N)(=O)=O)cc1)C(=O)N2
0.79%

# lookup: inhibition of Cc1ccc(C(=O)NC2CCC2)cc1-c1ccc(C(=O)NCC2CC2)cc1
-4.44%

# lookup: inhibition of Fc1ccc(-c2nc3n(c2-c2ccncc2)CCS3)cc1
-7.95%

# lookup: inhibition of O=C(Nc1ccc(Oc2ccc3[nH]c(NC(=O)c4ccccc4)nc3c2)cc1)Nc1cc(C(F)(F)F)ccc1F
-3.01%

# lookup: inhibition of Fc1ccc(-c2ncn(C3CCNCC3)c2-c2ccnc(Oc3ccc4c(c3)OCO4)n2)cc1
-7.21%

# lookup: inhibition of CS(=O)(=O)CCNCc1cc(-c2cc3c(Nc4ccc(OCc5cccc(F)c5)c(Cl)c4)ncnc3s2)cs1
-7.56%

# lookup: inhibition of COc1cc(Nc2ncc3c(C)nc(-c4cccc(C(F)(F)F)c4)n3n2)cc(OC)c1OC
-3.79%

# lookup: inhibition of NC(=O)c1cc(-c2ccc(F)cc2)cc(-c2ccncc2)c1N
-7.77%

# lookup: inhibition of NS(=O)(=O)c1ccc(N/N=C2\C(=O)Nc3ccc(C(=O)NCCCn4ccnc4)cc32)cc1
-2.66%

# lookup: inhibition of Cc1ccc(C(=O)NC(C)C)cc1-c1ccc(C(=O)NCC2CC2)cc1
2.35%

# lookup: inhibition of NS(=O)(=O)c1ccc(N/N=C2\C(=O)Nc3ccc(-c4cnco4)cc32)cc1
-3.81%

# lookup: inhibition of COc1cc(C)c(N(C)C(=O)CN(C)C)cc1Nc1nc(Nc2cccc(F)c2C(N)=O)c2cc[nH]c2n1
-0.45%

# lookup: inhibition of CCN(CC)Cc1ccc(Nc2nccc(-c3cnn4ncccc34)n2)cc1
-3.64%

# lookup: inhibition of C[C@@H](Oc1cc(-n2cnc3ccc(OCC4CCN(C)CC4)cc32)sc1C(N)=O)c1ccccc1Cl
-5.23%

# lookup: inhibition of O=C(NCC1CC1)c1ccc(-c2cccc(C(=O)NC3CC3)c2)cc1
-3.58%

# lookup: inhibition of CN(c1ccc(NC(=O)Nc2c(Cl)cccc2Cl)cc1)c1ccnc(Nc2cccc(CS(C)(=O)=O)c2)n1
4.33%

# lookup: inhibition of c1ccc(Oc2ccc(Nc3ncc(-c4ccccc4)o3)cc2)cc1
-1.17%

====

assay.target: Serine/threonine-protein kinase PAK 3 (Homo sapiens);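 also: reported percentage is a mean inhibition value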
condition: at 1 µM
Task for the reader: assign each of the following molecules its reported inhibition.
Numeric only. Scale: %

# lookup: inhibition of CN(c1ccc(NC(=O)Nc2c(Cl)cccc2Cl)cc1)c1ccnc(Nc2cccc(CS(C)(=O)=O)c2)n1
1.38

# lookup: inhibition of CCC(=O)Nc1ccc(C)c(-c2ccc(C(=O)NCC3CC3)cc2)c1
3.37

# lookup: inhibition of c1ccc(-c2n[nH]cc2-c2ccnc(-c3ccc(OCCN4CCOCC4)cc3)c2)nc1
3.78

# lookup: inhibition of COc1cc(C)c(N(C)C(=O)CN(C)C)cc1Nc1nc(Nc2cccc(F)c2C(N)=O)c2cc[nH]c2n1
2.79

# lookup: inhibition of C#Cc1cccc(Nc2ncnc3ccc(OCCCCNCCS(C)(=O)=O)cc23)c1
5.67

# lookup: inhibition of O=C(Nc1n[nH]c2nc(-c3ccc(O)cc3)c(Br)cc12)C1CC1
6.07

# lookup: inhibition of Fc1ccc(-c2ncn(CCCN3CCOCC3)c2-c2ccncc2)cc1
0.53

====

assay.target: Aurora kinase C (Homo sapiens) (UniProt Q9UQB9);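 also: reported value is a mean inhibition of Aurora-C from the GSK PKIS screening panel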
Sequence (whole entry): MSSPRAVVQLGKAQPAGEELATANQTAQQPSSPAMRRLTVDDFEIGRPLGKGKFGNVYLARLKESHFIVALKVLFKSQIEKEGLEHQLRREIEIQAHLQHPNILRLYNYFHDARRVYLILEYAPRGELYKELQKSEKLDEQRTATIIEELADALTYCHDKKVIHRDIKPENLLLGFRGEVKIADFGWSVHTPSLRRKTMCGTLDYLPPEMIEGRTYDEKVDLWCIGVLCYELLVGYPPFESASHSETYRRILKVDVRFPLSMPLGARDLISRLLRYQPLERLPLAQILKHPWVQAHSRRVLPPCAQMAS
condition: at 1 µM
Task for the reader: assign each of the following compounds its reported inhibition.
Numeric only. Scale: %

# lookup: inhibition of NS(=O)(=O)c1ccc(N/N=C2\C(=O)Nc3ccc(C(=O)NCCCn4ccnc4)cc32)cc1
23.2

# lookup: inhibition of C#Cc1cccc(Nc2ncnc3ccc(OCCCCNCCS(C)(=O)=O)cc23)c1
-5.69

# lookup: inhibition of COc1ccc2ncn(-c3cc(O[C@H](C)c4ccccc4Cl)c(C(N)=O)s3)c2c1
1.77

====

assay.target: Activated CDC42 kinase 1 (Homo sapiens) (UniProt Q07912)
Sequence (Q07912 whole entry, looked up): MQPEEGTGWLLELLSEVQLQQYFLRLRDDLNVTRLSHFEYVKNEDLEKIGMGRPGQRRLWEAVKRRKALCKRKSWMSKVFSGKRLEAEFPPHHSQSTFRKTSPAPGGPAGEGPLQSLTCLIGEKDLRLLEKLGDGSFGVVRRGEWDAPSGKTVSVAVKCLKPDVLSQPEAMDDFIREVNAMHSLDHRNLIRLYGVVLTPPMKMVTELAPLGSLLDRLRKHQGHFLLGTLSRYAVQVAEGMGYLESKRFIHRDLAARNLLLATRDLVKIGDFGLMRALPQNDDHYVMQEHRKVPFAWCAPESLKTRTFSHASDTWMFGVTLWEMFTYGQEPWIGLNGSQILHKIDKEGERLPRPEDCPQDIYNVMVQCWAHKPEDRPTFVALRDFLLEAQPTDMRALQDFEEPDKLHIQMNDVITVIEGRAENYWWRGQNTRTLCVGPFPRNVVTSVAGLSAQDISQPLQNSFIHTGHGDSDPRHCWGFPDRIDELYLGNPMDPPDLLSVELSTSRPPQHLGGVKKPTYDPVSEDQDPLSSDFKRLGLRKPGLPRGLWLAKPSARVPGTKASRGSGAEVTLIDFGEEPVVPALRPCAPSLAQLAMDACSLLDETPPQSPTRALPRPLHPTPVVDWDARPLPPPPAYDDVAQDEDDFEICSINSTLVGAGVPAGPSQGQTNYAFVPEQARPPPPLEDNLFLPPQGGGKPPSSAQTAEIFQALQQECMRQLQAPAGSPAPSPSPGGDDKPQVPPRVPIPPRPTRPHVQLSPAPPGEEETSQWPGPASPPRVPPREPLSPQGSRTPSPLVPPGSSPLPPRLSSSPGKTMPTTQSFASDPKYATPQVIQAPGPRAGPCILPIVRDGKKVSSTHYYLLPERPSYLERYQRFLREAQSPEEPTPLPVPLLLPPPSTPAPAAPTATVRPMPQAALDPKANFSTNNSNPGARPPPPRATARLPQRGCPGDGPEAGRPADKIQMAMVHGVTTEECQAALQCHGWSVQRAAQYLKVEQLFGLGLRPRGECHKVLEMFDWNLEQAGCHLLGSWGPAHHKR
condition: at 1 µM
Description: GSK_PKIS: TNK2 mean inhibition at 1 uM [Nanosyn]
Task for the reader: assign each of the following compounds its reported inhibition.
Numeric only. Scale: %

# lookup: inhibition of O=C1NC(=O)C(c2cccc(Cl)c2)=C1Nc1ccc(Cl)c(C(=O)O)c1
0.5

# lookup: inhibition of CCS(=O)(=O)c1ccc(OC)c(Nc2ncc(-c3ccccc3Cl)o2)c1
3.27

# lookup: inhibition of CN(C)c1ccc2c(c1)/C(=C/Nc1ccc(S(N)(=O)=O)cc1)C(=O)N2
1.79

# lookup: inhibition of CN(c1ccc(NC(=O)Nc2c(Cl)cccc2Cl)cc1)c1ccnc(Nc2cccc(CS(C)(=O)=O)c2)n1
4.21

# lookup: inhibition of O=C(Nc1n[nH]c2nc(-c3ccc(O)cc3)c(Br)cc12)C1CC1
3.9

# lookup: inhibition of c1ccc(Oc2ccc(Nc3ncc(-c4ccccc4)o3)cc2)cc1
2.91

# lookup: inhibition of Fc1ccc(-c2ncn(C3CCNCC3)c2-c2ccnc(Oc3ccc4c(c3)OCO4)n2)cc1
1.77

# lookup: inhibition of N#Cc1ccc(Oc2nccc(-c3c(-c4ccc(F)cc4)ncn3C3CCNCC3)n2)cc1
2.05

# lookup: inhibition of COc1ccc2cc(-c3c(-c4ccncc4)nc(-c4ccc(S(C)(=O)=O)cc4C)n3C)ccc2c1
3.77

# lookup: inhibition of O=C1Nc2ccccc2/C1=C/Nc1ccc(-n2cncn2)cc1
2.83

# lookup: inhibition of Cc1ccc(C(=O)NC2CCC2)cc1-c1ccc(C(=O)NCC2CC2)cc1
1.08

# lookup: inhibition of NCc1ccc(-n2c(-c3nonc3N)nc3cnccc32)cc1
5.77

# lookup: inhibition of Cc1ccc(NC(=O)c2ccoc2)cc1-c1ccc(C(=O)NCC2CC2)cc1
0.64

# lookup: inhibition of Fc1ccc(-c2ncn(CCCN3CCOCC3)c2-c2ccncc2)cc1
-1.72

# lookup: inhibition of CS(=O)(=O)CCNCc1cc(-c2cc3c(Nc4ccc(OCc5cccc(F)c5)c(Cl)c4)ncnc3s2)cs1
5.79

# lookup: inhibition of CN1CCN(CCCNc2nc3ccc(Oc4ccc(NC(=O)Nc5cc(C(F)(F)F)ccc5F)cc4)cc3[nH]2)CC1
5.75

# lookup: inhibition of C[C@@H](Oc1cc(-n2cnc3ccc(OCC4CCN(C)CC4)cc32)sc1C(N)=O)c1ccccc1Cl
19.8

# lookup: inhibition of COc1cccc(-n2cnc3c(N/N=C/c4ccncc4)ncnc32)c1
3.07

# lookup: inhibition of c1ccc(-c2n[nH]cc2-c2ccnc(-c3ccc(OCCN4CCOCC4)cc3)c2)nc1
5.14

# lookup: inhibition of NS(=O)(=O)c1ccc(N/N=C2\C(=O)Nc3ccc(C(=O)NCCCn4ccnc4)cc32)cc1
3.98

# lookup: inhibition of NC(=O)c1ccc(Oc2nccc(-c3c(-c4ccc(F)cc4)ncn3C3CCNCC3)n2)cc1
1.67

# lookup: inhibition of Cc1nnc(-c2ccc(C)c(-c3ccc(C(=O)NCc4ccc(Cl)cc4)cc3)c2)o1
0.3
